experiment: Pharmacokinetic studies in mice (LC-MS/MS); assay type: in vivo, B6D2F1 mice; settings: male, B6D2F1, mouse, brain, intravenous, 10 mg kg^-1, Brain; time 5 min; individual animals; read-out: Brain level
property-label: concentration at 5 min (µM)
Numbers only, in µM.

The recorded concentration at 5 min for CC(C)(C)CNCCn1c(Sc2cc3c(cc2I)OCO3)nc2c(N)ncnc21 is 13.5

----------
Experiment: Pharmacokinetic studies in mice (LC-MS/MS)
Assay type: in vivo, B6D2F1 mice
Details: male, B6D2F1, mouse, brain, iv, 10 mg kg^−1; read-out: brain to plasma ratio
Experimental: Blood and brain tissue were collected following euthanasia at the scheduled time points of 5, 30 min, 1, 4, and 8 h following iv dosing and of 30 min, 1, 4, and 8 h following po dosing. Brain samples were immediately flash frozen in liquid nitrogen following collection and stored at −80 °C until analysis. […]
property-label: Kp
One number for each entry.

The recorded Kp for CC(C)(C)CNCCn1c(Sc2cc3c(cc2I)OCO3)nc2c(N)ncnc21 [Compound 85] is 2.35

----------
assay: Pharmacokinetic studies in mice (LC-MS/MS); assay type: in vivo, B6D2F1 mice; conditions: male, B6D2F1, mouse, brain and lung, iv; single i.v. 10 mg/kg
property-label: Cmax

The recorded Cmax for CC(C)(C)CNCCn1c(Sc2cc3c(cc2I)OCO3)nc2c(N)ncnc21 [Compound 85] is 10 to 15 µM

----------
biological target: HSP90 pools in JNPL3 (AD transgenic) mouse brain lysate; test: Fluorescence polarization (FP) competitive binding, cy3B-GM; details: displacement of cy3B-GM, 24 h, 4 °C; mean±SD, n=3; read-out: FP relative affinity
Assignment: determine reported pEC50 for the given molecules.
Give bare numbers, as −log10 of the molar value.

Solved cases below.
C#CCN(C)CCCn1c(Cc2cc3c(cc2I)OCO3)nc2c(N)nc(F)nc21 = 7.52
C=CCc1cc2c(cc1Sc1nc3c(N)ncnc3n1CCCNC(C)C)OCO2 = 6.91
CCCN(CCCn1c(Cc2cc3c(cc2I)OCO3)nc2c(N)nc(F)nc21)CC1CC1 = 7.37

Okay, here is my list. What is pEC50 for each of these?
1. C=Cc1cc2c(cc1Sc1nc3c(N)ncnc3n1CCCNC(C)C)OCO2
2. CC(C)NCCCn1c(Sc2cc3c(cc2-c2ccccc2)OCO3)nc2c(N)ncnc21
3. CC(C)CNCCn1c(Sc2cc3c(cc2I)OCO3)nc2c(N)ncnc21
4. CC(C)NCCCn1c(Cc2cc(Br)c3c(c2)OCO3)nc2c(N)nc(F)nc21
5. CCN(CCCn1c(Cc2cc3c(cc2I)OCO3)nc2c(N)nc(F)nc21)C(C)C
6. CC(C)NCCCn1c(Sc2cc3c(cc2I)OCCO3)nc2c(N)ncnc21
7. CC(C)NCCCn1c(Cc2cc(I)c3c(c2)OCO3)nc2c(N)nc(F)nc21
8. C[N+](C)(C)CCCn1c(Cc2cc3c(cc2I)OCO3)nc2c(N)nc(F)nc21

A)
[6.67, 6.57, 7.85, 6.72, 7.52, 7.46, 7.07, 6.81]

----------
settings: PAMPA
Assign class by PAMPA_BBB: not lower than 8 means Condition met; lower than 8 means Condition not met.

See these solved cases before continuing.
CCCN(CCCn1c(Cc2cc3c(cc2I)OCO3)nc2c(N)nc(F)nc21)CC1CC1 [Compound 63] = Condition met
CCN(CCCn1c(Cc2cc3c(cc2I)OCO3)nc2c(N)nc(F)nc21)C(C)C [Compound 61] = Condition not met
CC(C)N(C)CCCn1c(Cc2cc3c(cc2I)OCO3)nc2c(N)nc(F)nc21 [Compound 60] = Condition not met
CC(C)CNCCn1c(Sc2cc3c(cc2I)CCO3)nc2c(N)ncnc21 [Compound 86] = Condition met
CC(C)CNCCn1c(Sc2cc3c(cc2I)OCO3)nc2c(N)ncnc21 [Compound 84] = Condition met
CC(C)NCCCn1c(Sc2cc3c(cc2-c2ccc(C(C)(C)C)cc2)OCO3)nc2c(N)ncnc21 [Compound 11] = Condition met
C=Cc1cc2c(cc1Sc1nc3c(N)ncnc3n1CCCNC(C)C)OCO2 [Compound 7] = Condition not met
CC(C)NCCCn1c(Sc2cc3c(cc2-c2ccccc2)OCO3)nc2c(N)ncnc21 [Compound 9] = Condition met

Q) Kindly determine if PAMPA_BBB recorded for CC1CN1CCCn1c(Cc2cc3c(cc2I)OCO3)nc2c(N)nc(F)nc21 (stereo not shown) [Compound 66] is above or exactly 8.
A) Condition not met

Q) Kindly determine if PAMPA_BBB recorded for CC(C)N(CCO)CCCn1c(Cc2cc3c(cc2I)OCO3)nc2c(N)nc(F)nc21 [Compound 69] is above or exactly 8.
A) Condition not met
